The following molecules are shown together with reported EC50 values.
# Experimental target: insulin subtype B receptor (IR-B) (Homo sapiens, UniProt P06213)
# Test protocol: Insulin subtype B receptor phosphorylation, receptor transfected HEK293 cells
# Assay type: cell-based
# Set-up: expressed in transfected cells; host or cells: HEK293
# Measurement parameters: Table 15; read-out: Receptor Phosphorylation IR-B EC50
Provide only the numeric value, understood in nM.

These solved cases illustrate the format of a correct answer.
DP22LysC: DP22 cleaved at the lysine of CTP to produce a two chain insulin (protein) chain 1: APPPSLPSPSRLPGPSDTPILPQEEEEERGPEHLCGAHLVDALYLVCGDRGFYSSSSRAPPPSLPSPSRLPGPSDTPILPQK chain 2: GIVDECCHRSCDLRRLENYCN :: 1.41
DP20LysC: DP20 cleaved at the lysine of CTP to produce a two chain insulin (protein) chain 1: GPEHLCGAHLVDALYLVCGDRGFYSSSSRAPPPSLPSPSRLPGPSDTPILPQK chain 2: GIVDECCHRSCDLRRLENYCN :: 1.33
GEEEEEKGPEHLCGAHLVDALYLVCGDRGFYSSSSRAPPPSLPSPSRLPGPSD TPILPQKGIVDECCHRSCDLRRLENYCN (protein, listed as Homo sapiens) GEEEEEKGPEHLCGAHLVDALYLVCGDRGFYSSSSRAPPPSLPSPSRLPGPSDTPILPQKGIVDECCHRSCDLRRLENYCN :: 4.83
DP22: CTP-E5R-B chain-CTP(K)-A Chain (SEQ ID NO: 91) (protein, single chain insulin analog) MGSSSSKAPPPSLPSPSRLPGPSDTPILPQEEEEERGPEHLCGAHLVDALYLVCGDRGFYSSSSRAPPPSLPSPSRLPGPSDTPILPQKGIVDECCHRSCDLRRLENYCN :: 11.3

Now examine the next entry.
*Q* Recorded EC50 for … AHLVDALYLVCGDRGFYGYGSSSRRAPQTGIVDECCHRSCDLRRLENYCN (protein, listed as Homo sapiens) MGSSSSKAPPPSLPSPSRLPGPSDTPILPQEEEEEKGPEHLCGAHLVDALYLVCGDRGFYGYGSSSRRAPQTGIVDECCHRSCDLRRLENYCN , please?
*A* 4.34
